Source of measurements: paper PMC9482650

# target.desc: SCRIB_2, Q14160
# Sequence (Q14160 857-960): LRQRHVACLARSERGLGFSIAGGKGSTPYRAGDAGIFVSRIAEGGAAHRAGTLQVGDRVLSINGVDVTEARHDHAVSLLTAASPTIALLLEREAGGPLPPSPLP
# protocol: holdup assay
# Design: key: below the threshold = too weak to quantify, mostly under pKd 3.1 to 4
# condition.details: plain residues with an end cap or a label only (N-terminal biotin on a linker: ado-ado)
Think of 4 as a floor: if pKd stands on it or above, it is yes (1); beneath it, no (0).

These recorded examples may help you get a feel for the data.
binder	qualitative.label
LESTTVGTSV [KARS1, Q15046]	yes (1)
GIKKITSTAL [RPS6KA3, P51812]	no (0)
DTKNYKQTSV [CRIPT, Q9P021]	yes (1)
APIAGFSSFV [SDK2, Q58EX2]	no (0)
PTPDLPQTRV [KLHDC7A, Q5VTJ3]	no (0)

Could you tell me if the measured pKd of TGLWKHETTV [ADGRA3, Q8IWK6] reaches 4 or more? yes (1)

Could you tell me if the measured pKd of PSHPRLQTHV [KIRREL2, Q6UWL6] reaches 4 or more? no (0)

Could you tell me if the measured pKd of AAVENKVTDL [PLXNB1, O43157] reaches 4 or more? no (0)

Could you tell me if the measured pKd of NTLNRKTTPV [CACNG8, Q8WXS5] reaches 4 or more? no (0)
